Where these numbers come from: the RNAGym collection of RNA variant scans (doi:10.7554/elife.80360)

Quick reference for self-cleavage among some variants
B1: Hairpin Ribozyme (parent)
chain: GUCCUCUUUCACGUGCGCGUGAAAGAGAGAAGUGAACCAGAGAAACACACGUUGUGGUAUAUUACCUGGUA

# Variants of: B1
# Experiment description: self-cleavage, relative activity (ratio to wild type); higher = more cleavage; co-transcriptional

| Change | self-cleavage |
| --- | --- |
| C3U U8C | 0.253 |
| G17C A24G | 0.88 |
| C6G A28G | 0.605 |
| A47U C65U | 0.0249 |
| A47C G56C | 0.161 |
| U8A C16U | 0.788 |
| C48U A49U | 0.208 |
| G51C G56C | 0.065 |
| C38U U67A | 0.119 |
| G29A A64U | 0.134 |
| A43C U58G | 0.262 |
| G19C A26G | 0.692 |
| G19A G29U | 0.21 |
| C16U U63G | 0.195 |
| A47C G51A | 0.303 |
| C48U U58A | 0.214 |
| A44G U58A | 0.17 |
| A35G A44C | 0.211 |
| G19C G42C | 0.329 |
| U5C A41C | 0.734 |
| A30U C38U | 0.232 |
| U9C A49C | 0.204 |
